I'd be grateful if you could share measured Bottom for these entries.
Target: T1, cynomolgus CD73 on the cell surface (293T/17-cynoCD73 cells) (cynomolgus (Macaca fascicularis), UniProt P21589 27-547 (human entry))
T1 construct: it is an ecto-domain with a His tag
T1 chain: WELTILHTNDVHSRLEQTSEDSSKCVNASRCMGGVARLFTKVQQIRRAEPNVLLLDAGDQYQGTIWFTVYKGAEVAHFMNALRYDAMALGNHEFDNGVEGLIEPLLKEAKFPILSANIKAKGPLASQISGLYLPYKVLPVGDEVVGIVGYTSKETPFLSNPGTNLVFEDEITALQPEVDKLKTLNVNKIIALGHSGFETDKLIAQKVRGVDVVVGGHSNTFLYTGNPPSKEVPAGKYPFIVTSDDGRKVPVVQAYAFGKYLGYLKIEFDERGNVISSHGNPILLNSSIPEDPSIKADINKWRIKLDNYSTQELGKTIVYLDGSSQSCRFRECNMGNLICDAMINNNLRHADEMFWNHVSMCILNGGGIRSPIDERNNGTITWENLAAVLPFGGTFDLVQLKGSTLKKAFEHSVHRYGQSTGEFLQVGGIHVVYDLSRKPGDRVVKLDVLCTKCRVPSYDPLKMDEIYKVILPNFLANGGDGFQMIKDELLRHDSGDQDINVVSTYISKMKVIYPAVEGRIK
Assay: flow cytometry on 293T/17-Cyno CD73 cells, curve fit
Answers are plain numbers, in fluorescence.

These solved cases illustrate the format of a correct answer.
• JB24Chi (antibody, human IgG1, kappa, V domains shown, Phage antibody, chimeric human IgG1 / human kappa full chains) VH: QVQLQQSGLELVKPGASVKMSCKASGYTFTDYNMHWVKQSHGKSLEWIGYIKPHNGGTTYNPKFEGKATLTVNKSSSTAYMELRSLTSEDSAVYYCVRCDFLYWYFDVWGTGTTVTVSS VL: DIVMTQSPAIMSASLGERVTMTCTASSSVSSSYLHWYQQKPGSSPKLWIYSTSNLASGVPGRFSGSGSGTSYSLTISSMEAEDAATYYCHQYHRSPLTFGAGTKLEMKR = 0.709
• JB24H3L3 (antibody, human IgG1, kappa, V domains shown, Humanized antibody of JB24Chi, human IgG1 / kappa) VH: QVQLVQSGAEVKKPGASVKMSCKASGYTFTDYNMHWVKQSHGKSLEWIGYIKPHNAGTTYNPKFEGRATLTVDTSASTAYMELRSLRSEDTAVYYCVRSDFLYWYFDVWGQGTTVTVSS VL: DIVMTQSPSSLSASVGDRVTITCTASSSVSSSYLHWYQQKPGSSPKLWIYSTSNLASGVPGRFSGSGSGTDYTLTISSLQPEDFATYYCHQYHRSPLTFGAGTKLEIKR = 0.917

Alright, here's another binder for you.
Task item: For JB24H3L2 (antibody, human IgG1, kappa, V domains shown, Humanized antibody of JB24Chi, human IgG1 / kappa) VH: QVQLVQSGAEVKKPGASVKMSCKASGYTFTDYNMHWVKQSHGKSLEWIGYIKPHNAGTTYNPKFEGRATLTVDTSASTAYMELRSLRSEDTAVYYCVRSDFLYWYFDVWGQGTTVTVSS VL: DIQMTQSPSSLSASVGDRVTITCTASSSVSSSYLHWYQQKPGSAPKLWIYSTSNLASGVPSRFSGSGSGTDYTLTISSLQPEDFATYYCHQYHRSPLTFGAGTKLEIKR , write its Bottom.
Reply: 0.509
